# key: entry, value: vessel count % control
test system: in vivo angiogenesis, blood vessel count; experiment: reduction of blood vessel formation in vivo – HTS, in vivo study (AID 732); conditions: active compounds read low;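 tested at 30 µM in the well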;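 further: zebrafish embryos dosed at one day post fertilization; 0% = reference inhibitor and 100% = plate mean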
The answer is to be given in %; state only the numeric part.

Would you please look over these solved cases?
CC(C)(CO)Cc1cc(C(C)(C)C)c(O)c(C(C)(C)C)c1 | 105
C#CCN(C)CCCOc1ccc(Cl)cc1Cl | 100

Data request: Could you tell me which vessel count % control is on file for N=C1Sc2ccccc2C2=NCCCN12 ?
Data returned: 104

Data request: Which value of vessel count % control has been reported for COc1ccc(CCN(C)CCCC(C#N)(c2ccc(OC)c(OC)c2)C(C)C)cc1OC (stereo unspecified) in the records?
Data returned: 118

Data request: Data request, read-out vessel count % control, for C[N+](C)(C)CC(=O)O
Data returned: 94

Data request: Reported vessel count % control, compound Oc1cc2c(cc1O)CN(C(=S)NCCc1ccc(Cl)cc1)CCC2 : ____
Data returned: 93.3

----------
tested on: in vivo angiogenesis, blood vessel count; test: reduction of blood vessel formation in vivo – HTS, in vivo study (AID 732); conditions: active compounds read low;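 tested at 30 µM in the well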;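 further: zebrafish embryos dosed at one day post fertilization; 0% = reference inhibitor and 100% = plate mean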
measurement.label: vessel count % control (%)
// units = %; emit number, no label

CNCCC(Oc1ccccc1OC)c1ccccc1 (centres undefined) | 113

Data request: Name the reported vessel count % control value associated with the compound O=c1[nH]cnc2[nH]ncc12
Data returned: 120

Data request: Name the reported vessel count % control value associated with the compound CC1(C)C(=O)N(CCN2CCC(C(=O)c3ccc(F)cc3)CC2)c2ccccc21
Data returned: 118

Data request: Given the entry NCC(O)c1cc(O)c(O)cc1F (centres undefined) , report its measured vessel count % control.
Data returned: 87.4

Data request: vessel count % control for Nc1nc(Nc2ccccc2)nc2c1ncn2[C@@H]1O[C@H](CO)[C@H](O)C1O (some centres undefined) ?
Data returned: 94.3

Data request: For the compound CNC(=O)Oc1ccc2c(c1)[C@]1(C)CCN(C)[C@@H]1N2C , what vessel count % control is on record?
Data returned: 120

----------
tested on: in vivo angiogenesis, blood vessel count; test: reduction of blood vessel formation in vivo – HTS, in vivo study (AID 732); conditions: active compounds read low;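 tested at 30 µM in the well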;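 further: zebrafish embryos dosed at one day post fertilization; 0% = reference inhibitor and 100% = plate mean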
measurement.label: vessel count % control (%)
Number only, in %; omit the unit.

# count of solved cases: 4
O=C(O)C1CCCN(CCC=C(c2ccccc2)c2ccccc2)C1 (configuration not stated) | 88.5
COc1ccc(CCN(C)CCc2ccc(OC)c(OC)c2)cc1OC | 101
CCCNC[C@H](O)COc1ccccc1C(=O)CCc1ccccc1 | 93.1
Clc1ccc(N2CCN(Cc3c[nH]c4ncccc34)CC2)cc1 | 83.7

Data request: Name the recorded vessel count % control for COc1cc2c(cc1OC)-c1cc(=Nc3c(C)cc(C)cc3C)n(C)c(=O)n1CC2 .
Data returned: 58.5

Data request: State the recorded vessel count % control for this entry: CCN(CC)C(=S)SSC(=S)N(CC)CC
Data returned: 0

Data request: Suppose we examine the molecule NCc1cc(=O)[nH]o1 ; what vessel count % control value has been reported?
Data returned: 110

Data request: # input molecule: CNCCC(Oc1ccccc1C)c1ccccc1 (configuration not stated) ; wanted: its vessel count % control
Data returned: 122

Data request: Name the reported vessel count % control value associated with the molecule CC(N)C(=O)OC(C)(C)Cc1ccc(Cl)cc1 (configuration not stated)
Data returned: 112

Data request: Look at this molecule and give its reported vessel count % control. COc1cc(CC(=O)O)ccc1O
Data returned: 116

Data request: Entry Clc1ccc(N2CC3CCC(C2)N3)nn1 has what vessel count % control?
Data returned: 106

Data request: Record request: vessel count % control value, item CC12NC(Cc3ccccc31)c1ccccc12 (configuration not stated)
Data returned: 76.2

Data request: vessel count % control for N#CC(C#N)=Cc1ccc([N+](=O)[O-])c(O)c1 ?
Data returned: 88.6

Data request: Can you look up the measured vessel count % control of C[N+]1(C)CCC(OC(=O)C(c2ccccc2)c2ccccc2)CC1 for me?
Data returned: 91.5

Data request: Request the reported vessel count % control associated with CC(=O)[C@H]1CCC2C3CC[C@H]4C[C@H](O)CC[C@]4(C)C3CC[C@@]21C (some centres not stated)
Data returned: 68.7
